The reported measurements were obtained from patent US20250027068.

Molecular target: pooled human IgG (human IgG1, 2, 3 and 4)
Property: Enzyme Activity Endpoint Assay: Fab′2 (ng/µL)
A number alone suffices; assume ng/µL.

query: Record request: Enzyme Activity Endpoint Assay: Fab′2 value, item PRT-383 (protein) MVTSVWTKGVTPPTNFTYGEDVLHAPYVANQGWYDITKTFNGKDDLLCGAATAGNMLHWWFDQNKEQIENYLKKHPEKQKINFNGEQMFDVKEAIDTKDSQLDSKLFDYFKEKAFPYLSTKHLGVFPDHVIDMFINGYRLSLTNHGPTPVKRGSKDPRGGIFDAVFTRGDQSKLLTNRHDFKEKTLKEISDLIKQELTEGKALGISHTYANVRINHVINLWGADFDAEGNLEAIYVTDSDSNASIGMKKYFVGVNSNGKVAISAKEIEEDNIGAQVLGLFTLSTGQDIWNQTN
result: 581
